- EXPERIMENTAL TARGET: Gamma-secretase
- PROTOCOL TEXT: Modulation of gamma secretase in human H4 cells overexpressing human APP695 harboring K595N/M596L Swedish double mutant assessed as reduction in free amyloid beta (1 to 42 residues) production measured after 24 hrs by AlphaLISA assay
- Type: cell-based
QUANTITY MEASURED: IC50 (nM)

>>> measurement("Cc1cc(N2C[C@H]3CC[C@@H](C2)[C@@H]3Nc2nc3n(n2)CCCC[C@H]3c2ccc(F)c(F)c2F)ncn1")
4

* * *

- PROTOCOL TEXT: Volume of distribution at steady state in C57BL/6J mouse at 1 mg/kg, iv administered as single dose
- Assay type: ADME, organism-based
- DETAILS: in vivo, read-out: Vdss
QUANTITY MEASURED: Vd (L/kg)

>>> measurement("Cc1cc(N2C[C@H]3CC[C@@H](C2)[C@@H]3Nc2nc3n(n2)CCCC[C@H]3c2ccc(F)c(F)c2F)ncn1")
1.1

Cited source for all entries: ChEMBL document CHEMBL4616706
